Measured values drawn from paper PMC12363342 for this set.

We begin with a simple list: items and their reported Km.
TARGET_SYSTEM: KDM4D (Homo sapiens, UniProt Q6B0I6)
Construct: KDM4AM1-L359,[38]; KDM4DM1-L359,[39]; KDM4EM1-R336,[30]; His6 (N); made in house; host or cells: Escherichia coli
Sequence (Q6B0I6 1-359): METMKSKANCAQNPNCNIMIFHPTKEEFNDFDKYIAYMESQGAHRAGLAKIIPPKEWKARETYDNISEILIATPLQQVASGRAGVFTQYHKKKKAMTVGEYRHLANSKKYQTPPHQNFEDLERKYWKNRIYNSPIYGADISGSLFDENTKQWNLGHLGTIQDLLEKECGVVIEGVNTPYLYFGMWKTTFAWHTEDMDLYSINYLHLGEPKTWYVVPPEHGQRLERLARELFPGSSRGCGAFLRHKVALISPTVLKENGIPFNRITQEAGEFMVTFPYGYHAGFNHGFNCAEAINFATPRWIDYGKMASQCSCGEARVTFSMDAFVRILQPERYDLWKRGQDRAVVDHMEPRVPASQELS
TEST_NAME: formaldehyde dehydrogenase (FDH)-coupled demethylation assay, KDM4D
Format: biochemical
TEST_CONDITIONS: FDH-coupled fluorescence assay; KDM4D (400 nM), H1 peptide 1–50 μM, FAS 20 μM, LAA 200 μM, 2OG 200 μM, NAD+ 500 μM, FDH 2.0 μM, HEPES pH 7.5; mean ± SEM (n = 3)
Square brackets hold non-standard residues; d marks the D form. Ends that are not written are not given here. Lys(Me3) = C[N+](C)(C)CCCC[C@H](N)C(=O)O
Provide the measurement as a number trailed by its unit.

Look at this substance and give its reported Km. KKKAAK[Lys(Me3)]AGGTPRKA [Peptide H1.2K26me3, 15-mer linker histone H1.2 residues 20-34 peptide, tri-methylated K26]
4.6 µM

Can you handle KKKATK[Lys(Me3)]AAGAGAAK [Peptide H1.5K26me3, 15-mer linker histone H1.5 residues 20-34 peptide, tri-methylated K26] next?
7.51 µM

Continue with KKKA[Lys(Me3)]KAGATAGKRK [Peptide H1.3K24me3, 15-mer linker histone H1.3 residues 20-34 peptide, tri-methylated K24]
5.93 µM

Please look at the following substance next.
I would be grateful if you could share the reported Km for KKKAR[Lys(Me3)]SAGAAKRKA [Peptide H1.4K25me3, 15-mer linker histone H1.4 residues 20-34 peptide, tri-methylated K25] .
60 µM

----------
Collected kcat (KDM4D) values appear next to each entry.
TARGET_SYSTEM: KDM4D (Homo sapiens, UniProt Q6B0I6)
Construct: KDM4AM1-L359,[38]; KDM4DM1-L359,[39]; KDM4EM1-R336,[30]; His6 (N); made in house; host or cells: Escherichia coli
TEST_NAME: formaldehyde dehydrogenase (FDH)-coupled demethylation assay, KDM4D
Type: biochemical
TEST_CONDITIONS: FDH-coupled fluorescence assay; KDM4D (400 nM), H1 peptide 1–50 μM, FAS 20 μM, LAA 200 μM, 2OG 200 μM, NAD+ 500 μM, FDH 2.0 μM, HEPES pH 7.5; mean ± SEM (n = 3)
Square brackets hold non-standard residues; d marks the D form. Ends that are not written are not given here. Lys(Me3) = C[N+](C)(C)CCCC[C@H](N)C(=O)O
Show the value, then the unit it is measured in.

Some substances with recorded kcat (KDM4D):
Suppose we examine the substance KKKA[Lys(Me3)]KAGATAGKRK [Peptide H1.3K24me3, 15-mer linker histone H1.3 residues 20-34 peptide, tri-methylated K24] ; what kcat (KDM4D) value has been reported?
0.39 ± 0.02 min⁻¹

Field entry: KKKATK[Lys(Me3)]AAGAGAAK [Peptide H1.5K26me3, 15-mer linker histone H1.5 residues 20-34 peptide, tri-methylated K26]
1.44 ± 0.08 min⁻¹

New cases:
What does the record list as kcat (KDM4D) for KKKAAK[Lys(Me3)]AGGTPRKA [Peptide H1.2K26me3, 15-mer linker histone H1.2 residues 20-34 peptide, tri-methylated K26] ?
0.29 ± 0.01 min⁻¹

Same read-out for KKKAR[Lys(Me3)]SAGAAKRKA [Peptide H1.4K25me3, 15-mer linker histone H1.4 residues 20-34 peptide, tri-methylated K25] ?
2.66 ± 0.91 min⁻¹
